- TARGET UNDER TEST: DNA topoisomerase I (Bos taurus)
- PROCEDURE SUMMARY: Inhibition of calf thymus Top1 assessed as reduction in supercoiled pBR322 DNA relaxation at 100 uM measured after 30 mins by agarose gel electrophoresis relative to camptothecin
Please respond with reported inhibition for every item in the list.

Solved cases (4 shown):
Q) For the compound CC1(C)CC[C@]2(C(=O)O)CC[C@]3(C)C(=CC[C@@H]4[C@@]5(C)CC[C@H](O)C(C)(C)[C@@H]5CC[C@]43C)[C@@H]2C1 [OLEANOLIC_ACID] , what inhibition is on record?
A) 0%

Q) For the compound CC1(C)CC[C@]2(C(=O)O)CC[C@]3(C)C(=CC[C@@H]4[C@@]5(C)C[C@@H](O)[C@H](O)[C@](C)(CO)[C@@H]5CC[C@]43C)[C@@H]2C1 , what inhibition is on record?
A) 60 to 89%

Q) For the compound COc1cc(/C=C/C(=O)O[C@H]2[C@H](O)C[C@]3(C)[C@H]4CC=C5[C@@H]6CC(C)(C)CC[C@]6(C(=O)O)CC[C@@]5(C)[C@]4(C)CC[C@H]3C2(C)C)ccc1O , what inhibition is on record?
A) > 90%

Q) For the compound C[C@H]1[C@H](C)CC[C@]2(C(=O)O)CC[C@]3(C)C(=CC[C@@H]4[C@@]5(C)C[C@@H](O)[C@H](O)C(C)(C)[C@@H]5CC[C@]43C)[C@H]12 [COROSOLIC ACID] , what inhibition is on record?
A) < 29%

For each of the compounds below, note its inhibition.
1. O=C(/C=C/c1ccc(O)cc1)c1ccc(O)cc1O [ISOLIQUIRITIGENIN]
2. C[C@@H]1CC[C@]2(C(=O)O)CC[C@]3(C)C(=CC[C@@H]4[C@@]5(C)C[C@@H](O)[C@@H](O)C(C)(C)[C@@H]5CC[C@]43C)[C@@H]2[C@]1(C)O [EUSCAPHIC ACID]

A)
["30 to 59%", "> 90%"]

====

- TARGET UNDER TEST: DNA topoisomerase I (Bos taurus) (UniProt F1MN93)
- Sequence (F1MN93 as listed by the source): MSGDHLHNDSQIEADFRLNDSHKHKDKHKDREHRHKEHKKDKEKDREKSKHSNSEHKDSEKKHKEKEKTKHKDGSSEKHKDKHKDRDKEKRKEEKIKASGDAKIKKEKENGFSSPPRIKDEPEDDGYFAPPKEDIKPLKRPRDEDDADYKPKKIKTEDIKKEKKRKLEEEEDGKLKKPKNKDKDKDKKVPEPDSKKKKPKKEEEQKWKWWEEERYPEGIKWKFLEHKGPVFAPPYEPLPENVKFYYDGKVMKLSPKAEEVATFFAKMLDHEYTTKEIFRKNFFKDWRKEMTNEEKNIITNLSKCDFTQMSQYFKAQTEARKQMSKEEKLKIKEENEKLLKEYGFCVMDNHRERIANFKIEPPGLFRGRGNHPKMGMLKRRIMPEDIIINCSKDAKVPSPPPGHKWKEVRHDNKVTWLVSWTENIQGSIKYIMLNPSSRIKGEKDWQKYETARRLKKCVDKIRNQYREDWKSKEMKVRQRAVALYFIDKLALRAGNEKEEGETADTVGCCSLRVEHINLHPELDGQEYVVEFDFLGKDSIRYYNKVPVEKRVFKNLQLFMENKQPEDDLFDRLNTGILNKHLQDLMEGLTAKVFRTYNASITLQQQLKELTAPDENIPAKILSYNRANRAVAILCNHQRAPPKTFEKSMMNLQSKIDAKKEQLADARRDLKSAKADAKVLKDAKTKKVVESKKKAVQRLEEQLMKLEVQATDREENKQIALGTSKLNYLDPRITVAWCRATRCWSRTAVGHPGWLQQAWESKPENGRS
- PROCEDURE SUMMARY: Inhibition of calf thymus Top1 assessed as reduction in supercoiled pBR322 DNA relaxation at 100 uM measured after 30 mins by agarose gel electrophoresis relative to camptothecin
Please respond with reported inhibition for every item in the list.

Solved cases (5 shown):
Q) For the compound CC(C)c1ccc(O)c2c1CC[C@H]1[C@@](C)(C(=O)O)CCC[C@]21C , what inhibition is on record?
A) 30 to 59%

Q) For the compound CC1(C)CC[C@]2(C(=O)O)CC[C@]3(C)C(=CC[C@@H]4[C@@]5(C)C[C@@H](O)[C@@H](O)[C@@](C)(CO)[C@@H]5CC[C@]43C)[C@@H]2C1 , what inhibition is on record?
A) 0%

Q) For the compound CC(C)c1cc2c(cc1O)[C@]1(C)CCC[C@](C)(C(=O)O)[C@H]1CC2 , what inhibition is on record?
A) 30 to 59%

Q) For the compound C[C@H]1[C@H](C)CC[C@]2(C(=O)O)CC[C@]3(C)C(=CC[C@@H]4[C@@]5(C)CCC(=O)C(C)(C)[C@@H]5CC[C@]43C)[C@H]12 [URSONIC ACID] , what inhibition is on record?
A) > 90%

Q) For the compound COc1cc(O)ccc1/C=C/C(=O)c1ccc(O)cc1 [ECHINATIN] , what inhibition is on record?
A) 30 to 59%

For each of the compounds below, note its inhibition.
1. C[C@@H]1CC[C@@]23CC[C@]4(C)[C@@](C=C[C@@H]5[C@@]6(C)CC[C@H](O)C(C)(C)[C@@H]6CC[C@]54C)(OC2=O)C3[C@H]1C (stereo partly drawn)
2. CC(=O)O[C@H]1CC[C@]2(C)[C@H]3CC=C4[C@@H]5[C@@H](C)[C@H](C)CC[C@]5(C(=O)O)CC[C@@]4(C)[C@]3(C)CC[C@H]2C1(C)C [O-ACETYLURSOLIC ACID]
3. C=C1C(=O)O[C@H]2C3=CC[C@@H]4C(C)(C)C(=O)CC[C@@]4(C)[C@@H]3CC[C@@H]12
4. CC(=O)O[C@H]1CC[C@]2(C)[C@H]3CC=C4[C@H]5[C@](C(=O)O)(CC[C@@H](C)[C@@]5(C)O)CC[C@@]4(C)[C@]3(C)CC[C@H]2C1(C)C

A)
1. 0%
2. > 90%
3. 60 to 89%
4. 0%

For each of the compounds below, note its inhibition.
1. C=C1C(=O)[C@]23C[C@H]1CC[C@H]2[C@]1(C)CC[C@@H](O)C(C)(C)[C@H]1C[C@@H]3O
2. C=C1C(=O)O[C@H]2C3=CC[C@@H]4[C@](C)(CO)CCC[C@@]4(C)[C@@H]3CC[C@@H]12
3. C[C@H]1[C@H](C)CC[C@]2(CO)CC[C@]3(C)C(=CC[C@@H]4[C@@]5(C)CC[C@H](O)C(C)(C)[C@@H]5CC[C@]43C)[C@H]12 [UVAOL]
4. CC(C)c1cc2c(cc1O)[C@@]1(C)CCC[C@](C)(CO)[C@@H]1CC2

A)
["60 to 89%", "30 to 59%", "30 to 59%", "30 to 59%"]
